ASSAYED SYSTEM: SARS-CoV-2 S1 (antigen of the Carterra SPR kinetics) (SARS-CoV-2, UniProt P0DTC2 16-685)
ASSAY: Carterra SPR
MEASUREMENT KIND: koff (s⁻¹)

binder="1-7 (antibody, V domains shown, also called variant 1-7) VH: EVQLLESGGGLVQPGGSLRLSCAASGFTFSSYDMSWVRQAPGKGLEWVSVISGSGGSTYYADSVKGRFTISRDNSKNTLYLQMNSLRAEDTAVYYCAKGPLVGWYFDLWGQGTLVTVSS VL: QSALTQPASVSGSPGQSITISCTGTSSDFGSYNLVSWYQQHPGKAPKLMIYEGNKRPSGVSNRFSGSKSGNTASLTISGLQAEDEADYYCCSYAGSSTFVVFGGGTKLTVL" measurement_kind=koff value_observed=0.17
binder="1-31 (antibody, V domains shown, also called variant 1-31) VH: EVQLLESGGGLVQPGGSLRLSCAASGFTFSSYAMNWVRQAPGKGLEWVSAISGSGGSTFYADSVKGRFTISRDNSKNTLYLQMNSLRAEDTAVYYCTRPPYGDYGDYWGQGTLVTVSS VL: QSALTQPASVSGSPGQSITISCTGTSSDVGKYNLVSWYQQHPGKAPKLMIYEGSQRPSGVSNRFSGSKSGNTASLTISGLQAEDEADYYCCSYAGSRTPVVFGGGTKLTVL" measurement_kind=koff value_observed=0.000762
binder="1-10 (antibody, V domains shown, also called variant 1-10) VH: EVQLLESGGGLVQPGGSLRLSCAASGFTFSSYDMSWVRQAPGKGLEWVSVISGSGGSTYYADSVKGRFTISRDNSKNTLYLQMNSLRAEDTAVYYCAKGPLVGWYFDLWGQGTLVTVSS VL: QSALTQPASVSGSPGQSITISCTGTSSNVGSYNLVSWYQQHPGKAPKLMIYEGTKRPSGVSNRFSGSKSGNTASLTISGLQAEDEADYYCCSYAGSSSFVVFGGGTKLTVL" measurement_kind=koff value_observed=0.147
binder="1-32 (antibody, V domains shown, also called variant 1-32) VH: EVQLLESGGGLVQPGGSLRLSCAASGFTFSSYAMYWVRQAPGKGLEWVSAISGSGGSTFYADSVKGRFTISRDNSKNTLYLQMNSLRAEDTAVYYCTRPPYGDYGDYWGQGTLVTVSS VL: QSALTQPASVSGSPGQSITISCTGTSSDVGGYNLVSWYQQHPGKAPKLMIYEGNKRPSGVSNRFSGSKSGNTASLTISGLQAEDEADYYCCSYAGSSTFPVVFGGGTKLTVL" measurement_kind=koff value_observed=0.317
binder="1-4 (antibody, V domains shown, also called variant 1-4) VH: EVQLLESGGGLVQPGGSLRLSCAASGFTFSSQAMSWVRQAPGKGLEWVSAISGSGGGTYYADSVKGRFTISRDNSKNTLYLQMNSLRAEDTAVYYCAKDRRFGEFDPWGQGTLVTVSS VL: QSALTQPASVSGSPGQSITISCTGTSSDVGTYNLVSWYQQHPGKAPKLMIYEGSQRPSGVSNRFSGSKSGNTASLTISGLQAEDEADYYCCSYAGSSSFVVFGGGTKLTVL" measurement_kind=koff value_observed=0.124
